Assay: Toxicity in Salmonella Typhimurium […] at 600 ug/plate after 72 hrs by Ames assay in presence of Ames S-9 fraction
Assay type: organism-based
Conditions: salmonella enterica subsp. enterica serovar typhimurium, Salmonella Typhimurium T98 with S-9 fraction
MEASUREMENT KIND: inhibition at 72 h, 600 ug/plate (%)
One number for each entry, in %.

O=c1c(O)c(-c2ccc(O)c(O)c2)oc2cc(O)cc(O)c12 [QUERCETIN]
50
COc1ccc(-c2cc(=O)c3c(OC)c(OC)c(OC)c(OC)c3o2)cc1 [TANGERETIN]
50

Now let's try a different one.
Problem: Give a short answer stating reported inhibition at 72 h, 600 ug/plate for C[C@@H]1O[C@@H](O[C@H]2[C@H](Oc3cc(O)c4c(c3)O[C@H](c3ccc(O)cc3)CC4=O)O[C@H](CO)[C@@H](O)[C@@H]2O)[C@H](O)[C@H](O)[C@H]1O [NARINGIN] .
Solution: 50

Data origin, for the record: ChEMBL document CHEMBL1151118
